These measurements were taken from patent US20050037450A1.

System: Wild type yeast
Experiment: Lithium inhibition of yeast growth (OD600), wild type
Type: cell-based, S. cerevisiae
Details: Saccharomyces cerevisiae, CM/ura− 2% dextrose, 1.25 μg/ml methionine, 24 hr at 30° C., growth relative to media lacking lithium, read-out: IC50 of lithium for growth inhibition
Experimental: FIG. 7 is a graph showing met3Δ and met14Δ strains are lithium resistant. Wild type, met3Δ, and met14Δ yeast were resuspended at 5×10^4/ml in CM/ura^− containing 2% dextrose and 1.25 μg/ml methionine. Growth at various concentrations of LiCl was measured after a 24 hr incubation at 30° C. The growth is plotted relative to growth in media lacking lithium. FIG. 10 is a graph showing methionine supplementation induces lithium resistance. […]
pIC50: −log10 of the molar value.
PROPERTY: pIC50

Look up pIC50: [Li] [lithium]
~1.40
